TEST METHOD NOTES: Cellular Toxicity (caspase-3) Jurkat (AID 655);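 further: cells exposed to compound for 16 h at 37 °C before reading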
TEST CONTEXT: Jurkat caspase-3 activation, luminescence, DMSO = 0%, tamoxifen = 100%; at 92.2 µM (top of the series)
Records with an inconclusive call do not appear.
RECORDED ENDPOINT: caspase-3 activation (%)
State just the number; it will be interpreted in %.

// below: answered compounds
O=C1C(Cl)=C(Cl)C(=O)C(Cl)=C1Cl = -9.68
CNC(=O)O/N=C/C(C)(C)SC = -0.602
O=NN(CCO)CCO = -1.33
CC(O)CCl (configuration not stated) = 1.88

Could you now look at the following compound, please?
IN: Fill blank: measured caspase-3 activation of the compound O=C(Cl)C(Cl)(Cl)Cl is ____.
OUT: 3.49

* * *

TEST METHOD NOTES: UWB1.289-WTBRCA1 Cancer Cell Toxicity qHTS against the NCATS CANVASS Library (AID 1347354)
TEST CONTEXT: UWB1.289-WTBRCA1 viability, CellTiter-Glo luminescence, 72 h; series mostly up to 38.3 µM
Results filed as inconclusive are left out. Calls of active or inactive are those of the source. Calls come from the whole dose curve; as a rule, active = well fitted cell-killing curve with a large enough effect; inconclusive = small, poorly fitted or top-dose-only effect, or effect the other way; inactive = flat fitted curve, though single readings scatter. Starred links: 1 amine or outer side, 2 acyl side, 3 side chain; linkers in the order of their positions; H or OH if unused. Positions of bridges follow the written chain, without caps; N, C: chain ends. Non-standard residues stand in square brackets, D forms with d. Residues, ends and D or L forms follow the SMILES beside them. ξ: configuration not given here. *: point of attachment. X3 = C[C@@H](Oc1ccc([C@H](N[*:1])C(=O)[*:2])cc1)[C@]1(/C=C\C(=O)[*:3])CO1; d(aIle) = CC[C@H](C)[C@@H](N)C(=O)O; X2 = CC(C)[C@@H](O)C(C)C(=O)*; ξNMeF = CNC(Cc1ccccc1)C(=O)O; ξT = CC(O)C(N)C(=O)O; ξS = NC(CO)C(=O)O
Return exactly one item of YES for active, NO for inactive

C=CC(C)(C)[C@@]12C[C@H]3C(=O)N/C(=C/c4cnc[nH]4)C(=O)N3[C@@H]1Nc1ccccc12 = NO
C/C=C1/CN2CC[C@@]34c5ccccc5N(C)[C@@H]3[C@@H]2C[C@@H]1[C@H]4C(=O)OC = NO
C1=C2CCCN[C@H]2C2CC1[C@H]1CCCCN1C2 (some centres undefined) = NO
CCCC[C@@H]1CC[C@H]2CCCC(CCCO)N12 (some centres undefined) = NO
CCC(=O)N[C@@H](C[C@H](C)C(Cl)(Cl)Cl)C(=O)N1C(=O)C=C(OC)[C@@H]1C[C@H](C)C(Cl)Cl = NO
CC[C@H]1CN2CCc3c([nH]c4cccc(OC)c34)[C@@H]2C[C@@H]1/C(=C\OC)C(=O)OC = NO
C/C=C1/CN2CC[C@]34C(=C(C(=O)OC)[C@H]1C[C@H]23)Nc1ccccc14 = NO
CO[C@@H](/C=C/CC/C=C/C(=O)O)[C@@H](O)[C@H](C)/C=C(\C)[C@H](O)[C@H](C)C(=O)CCCC1CC(=O)NC(=O)C1 = NO
C=C(C)[C@H]1C(=O)c2c3c(cc4c5c(n1c24)[C@@]1(C)[C@@H](CC[C@H]2[C@](C)(/C=C/C=C(\C)C(=O)O)[C@@H](O)CC[C@@]21C)C5)C1=CC(C)(C)OC(C)(C)[C@H]1[C@@H]3O = YES
COC1=C(C2=C(OC)C(=O)c3cc4c(c(O)c3C2=O)C(=O)O[C@H](C)C4)C(=O)c2c(cc3c(c2O)C(=O)O[C@H](C)C3)C1=O = NO

IN: Could you check what this test reported for CC[C@H](C)[C@H]1NC(=O)[C@@H](NC(=O)C(C)[C@H](O)C(C)C)[C@@H](C)OC(=O)C2COC(=O)CNC(=O)/C=C\[C@]3(CO3)[C@@H](C)Oc3ccc(cc3)[C@H](NC1=O)C(=O)N(C)C(Cc1ccccc1)C(=O)NC(C(C)O)C(=O)N2 (some centres undefined) (X2-T[d(aIle)][X3][ξNMeF][ξT][ξS]; ester 1-C; linker 3-6 via G) ?
OUT: NO

IN: Another: C/C=C(\C)C(=O)O[C@@H]1[C@@H](O)[C@@H]2O[C@H]3[C@H](O[C@@H](CCCCC)CCCCCCC(=O)CCC(=O)OC[C@@H](O2)[C@H]1OC(=O)/C=C/c1ccccc1)O[C@H](C)[C@H](OC(C)=O)[C@@H]3O
OUT: NO

IN: # iterate: C[N+](C)(C)CCc1c[nH]c2ccccc12
OUT: NO

IN: Also need CCCC[C@@H](C)/C=C1/CN2CCC[C@H]2[C@@](C)(O)[C@@H]1O , thanks.
OUT: NO

* * *

TEST METHOD NOTES: Cell Viability - N2a (AID 540);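 further: cells exposed to compound for 40 h at 37 °C; plate controls were DMSO alone for no effect and tamoxifen control for full effect; nearly all actives have a fitted effect of over 45% in size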
TEST CONTEXT: N2a mouse neuroblastoma cell viability; at 92.2 µM (top of the series)
Results filed as inconclusive are left out. Calls of active or inactive are those of the source. Calls follow the shape of the dose curve; as a rule, active = well fitted cell-killing curve with a large enough effect; inconclusive = small, poorly fitted or top-dose-only effect; inactive = flat fitted curve, though single readings scatter.
Assign a class; possible classes are true for active, false for inactive

COC1=CC(=O)O[C@@H](/C=C/c2ccc3c(c2)OCO3)C1 = false

IN: Recorded call for CCCSC(=O)Cl ?
OUT: false

IN: Request: CCNc1nc(Cl)nc(NC(C)C)n1
OUT: false

IN: Similarly, CCOCN(C(=O)CCl)c1c(C)cccc1CC ?
OUT: false

IN: And the next one, CCCCOC(=O)c1ccccc1C(=O)OCCCC ?
OUT: false

IN: Another molecule to check: Cc1cccc(C#N)c1
OUT: false

IN: Record: CC(C)(OO)c1ccccc1
OUT: false

IN: Query C/C=C/c1ccc2c(c1)OCO2 next
OUT: false

IN: What do you get for Cc1ccc(O)c(C)c1 ?
OUT: false

IN: Follow-up item: CC(C)(C)OOC(C)(C)C
OUT: false

IN: What would you report for Brc1ccccc1 ?
OUT: false

* * *

TEST METHOD NOTES: Cell Viability - HUV-EC-C (AID 542);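 further: cells exposed to compound for 40 hours; on the % scale 0 is the no-effect control and ±100 the full control effect; nearly all actives have a fitted effect of over 35% in size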
TEST CONTEXT: HUV-EC-C endothelial cell viability, qHTS; series mostly up to 92.2 µM
Records with an inconclusive call do not appear. Calls of active or inactive are those of the source. The call rests on the fitted dose curve; in most records, active means well fitted cell-killing curve with a large enough effect; inconclusive means small, poorly fitted or top-dose-only effect, or effect the other way; inactive means flat fitted curve, though single readings scatter.
// allowed return values: active, inactive

Past entries and their recorded results:
Cc1ccc2ccccc2c1 = inactive
COC1=CC(=O)O[C@@H](/C=C/c2ccc3c(c2)OCO3)C1 = inactive
COC1=CC(=O)OC(CCc2ccccc2)C1 (centres undefined) = inactive
Cc1ccc([N+](=O)[O-])cc1C = inactive
C=CC(C)=O = inactive

IN: What outcome does the record of this test show for O=NN(c1ccccc1)c1ccccc1 ?
OUT: inactive

IN: // query: CCNc1nc(Cl)nc(NC(C)C)n1
OUT: inactive

IN: Now consider C=C(C)C(=O)OCC1CO1 (centres undefined) .
OUT: inactive

IN: Can you handle O=[N+]([O-])c1cccc2ccccc12 next?
OUT: inactive

IN: Now try O=C(Cl)C(Cl)(Cl)Cl .
OUT: inactive

IN: Do the same for C=CC1CC=CCC1 (centres undefined) please
OUT: inactive

IN: And for ClCBr ?
OUT: inactive

IN: Param item: ClC1=C(Cl)C2(Cl)C3C4C=CC(C4)C3C1(Cl)C2(Cl)Cl (centres undefined)
OUT: inactive

* * *

TEST METHOD NOTES: Cell Viability - N2a (AID 540);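 further: cells exposed to compound for 40 h at 37 °C; plate controls were DMSO alone for no effect and tamoxifen control for full effect; nearly all actives have a fitted effect of over 45% in size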
TEST CONTEXT: N2a mouse neuroblastoma cell viability; at 92.2 µM (top of the series)
Inconclusive results are not listed.
RECORDED ENDPOINT: activity change, negative = cytotoxicity (%)
Give the quantity in %, number only.

c1ccc(N=Nc2ccccc2)cc1 = 1.26
O=NN(c1ccccc1)c1ccccc1 = 2.63
Clc1cc(Cl)c(-c2cc(Cl)c(Cl)cc2Cl)cc1Cl = -93.1
CN=C=S = -7.58
O=[N+]([O-])c1cccc2ccccc12 = 2.46

# ---- query compound ----
IN: Would you mind telling me what activity change, negative = cytotoxicity value was observed for CCc1cccc(CC)c1N(COC)C(=O)CCl ?
OUT: -5.69

* * *

TEST METHOD NOTES: Cell Viability - LYMP1-002 - Assay at 40 hr (AID 994);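 further: 0% = DMSO only and full inhibition = 92 µM tetraoctylammonium bromide; nearly all actives have a fitted effect of over 60% in size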
TEST CONTEXT: LYMP1-002 lymphoblastoid cell viability; series mostly up to 92.2 µM
Inconclusive results are not listed. The source made the active and inactive calls. Calls follow the shape of the dose curve; as a rule, active = well fitted cell-killing curve with a large enough effect; inconclusive = small, poorly fitted or top-dose-only effect; inactive = flat fitted curve, though single readings scatter.
Your response should consist of one outcome taken from true (1) for active, false (0) for inactive

Solved entries:
C=C(C)C#N = false (0)
C/C=C/c1ccc2c(c1)OCO2 = false (0)

IN: # lookup: test call for ClCBr
OUT: false (0)

IN: Also Cc1ccc([N+](=O)[O-])cc1C ?
OUT: false (0)

IN: Try this molecule too: CCCCCCCC(=O)Cl
OUT: false (0)

IN: And COP(=S)(OC)Oc1ccc([N+](=O)[O-])cc1 ?
OUT: false (0)

IN: Further, for C1CCC2CCCCC2C1 (stereo unspecified) ?
OUT: false (0)

IN: Okay, and S=C=Nc1cccc2ccccc12 ?
OUT: false (0)

IN: Record: Cc1ccc(O)c(C)c1
OUT: false (0)

IN: How about this molecule: C[C@]12CC[C@H]3[C@@H](CCC4=CC(=O)CC[C@@]43C)[C@@H]1CC[C@@H]2O
OUT: false (0)

IN: And what about the molecule CNC(=O)O/N=C/C(C)(C)SC ?
OUT: false (0)
